# reported Emax; entries follow
- measured_on: BRAF^V600E protein (Homo sapiens, UniProt P15056, V600E)
- Sequence (P15056 whole entry V600E): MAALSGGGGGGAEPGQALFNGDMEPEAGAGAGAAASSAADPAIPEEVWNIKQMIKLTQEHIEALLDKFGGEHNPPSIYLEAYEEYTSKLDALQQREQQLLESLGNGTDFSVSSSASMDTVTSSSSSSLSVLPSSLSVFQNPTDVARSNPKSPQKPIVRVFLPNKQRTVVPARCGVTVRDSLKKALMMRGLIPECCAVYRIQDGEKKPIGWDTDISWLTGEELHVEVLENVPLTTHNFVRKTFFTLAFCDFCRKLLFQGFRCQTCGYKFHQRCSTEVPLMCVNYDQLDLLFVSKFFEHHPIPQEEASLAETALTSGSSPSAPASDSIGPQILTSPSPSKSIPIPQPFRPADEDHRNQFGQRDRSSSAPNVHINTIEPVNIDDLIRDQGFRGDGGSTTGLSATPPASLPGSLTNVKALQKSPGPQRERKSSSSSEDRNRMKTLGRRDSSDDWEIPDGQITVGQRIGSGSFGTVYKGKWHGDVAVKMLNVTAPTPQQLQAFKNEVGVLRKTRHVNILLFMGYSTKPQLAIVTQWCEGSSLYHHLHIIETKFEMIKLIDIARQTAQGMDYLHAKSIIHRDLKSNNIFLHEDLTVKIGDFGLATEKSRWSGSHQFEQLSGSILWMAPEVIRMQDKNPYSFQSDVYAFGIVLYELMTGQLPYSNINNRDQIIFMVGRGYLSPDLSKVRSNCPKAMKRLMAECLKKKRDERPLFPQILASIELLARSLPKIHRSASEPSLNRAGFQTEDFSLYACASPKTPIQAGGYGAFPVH
- experiment: HiBiT cellular BRAF V600E degradation assay
- Format: cell-based
- settings: A375.10 cells, 24 h incubation; Emax = amount of residual protein remaining in the cell after compound treatment; read-out: HiBit 24 h Emax

molecule | Emax / %
[2H][C@@]1(c2ccc(N3CCC(O)(CC(=O)N4CCN(c5ncc(-c6cnc7[nH]cc(C(=O)c8c(F)ccc(NS(=O)(=O)N(C)CC)c8F)c7c6)cn5)CC4)CC3)c(F)c2)CCC(=O)NC1=O (single isomer, unassigned) [Example 158c] | 7.84
CCN(C)S(=O)(=O)Nc1ccc(F)c(C(=O)c2c[nH]c3ncc(-c4ccc(N5CCN(C(=O)CC6(O)CCN(c7ccc(NC8CCC(=O)NC8=O)cc7F)CC6)CC5)c(Cl)c4)cc23)c1F (stereo not drawn) | 8.93
CCN(C)S(=O)(=O)Nc1ccc(F)c(C(=O)c2c[nH]c3ncc(-c4ccc(N5CCN(CCN6CCC(c7ccc(NC8CCC(=O)NC8=O)cc7)CC6)CC5)nc4)cc23)c1F (stereo not drawn) | 11.5
